# test-details: Half life in rhesus monkey at 0.5 mg/kg, iv and 2 mg/kg, po
# Assay type: ADME, organism-based, Macaca mulatta
# experimental-setup: in vivo

- cpd-smiles: "Cn1c(N(Cc2ccc(C(=O)Nc3nnn[nH]3)cc2)[C@H]2CC[C@H](C(C)(C)C)CC2)nc2cc(C(F)(F)F)ccc21"
  half-life [h]: 2.4

* * *

# test-details: Half life in dog at 0.25 mg/kg, iv and 1 mg/kg, po
# Type: ADME, organism-based, Canis lupus familiaris
# experimental-setup: in vivo

- cpd-smiles: "Cn1c(N(Cc2ccc(C(=O)Nc3nnn[nH]3)cc2)[C@H]2CC[C@H](C(C)(C)C)CC2)nc2cc(C(F)(F)F)ccc21"
  half-life: "126 min"

* * *

# test-details: Clearance in mouse at 1 mg/kg, iv and 2 mg/kg, po
# Type: ADME, organism-based
# experimental-setup: in vivo
measured-attribute: clearance (mL/min/kg)

- cpd-smiles: "Cn1c(N(Cc2ccc(C(=O)Nc3nnn[nH]3)cc2)[C@H]2CC[C@H](C(C)(C)C)CC2)nc2cc(C(F)(F)F)ccc21"
  measured-attribute: "clearance"
  readout-unit: "mL/min/kg"
  observed-measurement: 4
- cpd-smiles: "Cn1c(N(Cc2ccc(C(=O)Nc3nnn[nH]3)cc2)[C@H]2CC[C@H](C(C)(C)C)CC2)nc2cc(OC3CCCC3)ccc21"
  measured-attribute: "clearance"
  readout-unit: "mL/min/kg"
  observed-measurement: 10

* * *

# test-details: Antagonist activity against rhesus monkey glucagon receptor assessed as cAMP accumulation
# Assay type: functional, Macaca mulatta

- cpd-smiles: "Cn1c(N(Cc2ccc(C(=O)Nc3nnn[nH]3)cc2)[C@H]2CC[C@H](C(C)(C)C)CC2)nc2cc(C(F)(F)F)ccc21"
  IC50 / nM: 111

* * *

# test-details: Volume of distribution at steady state in dog at 0.25 mg/kg, iv and 1 mg/kg, po
# Assay type: ADME, organism-based, Canis lupus familiaris
# experimental-setup: in vivo, read-out: Vdss
measured-attribute: Vd (L/kg)

- cpd-smiles: "Cn1c(N(Cc2ccc(C(=O)Nc3nnn[nH]3)cc2)[C@H]2CC[C@H](C(C)(C)C)CC2)nc2cc(C(F)(F)F)ccc21"
  measured-attribute: "Vd"
  observed-measurement: 0.5

* * *

# test-details: Clearance in dog at 0.25 mg/kg, iv and 1 mg/kg, po
# Assay type: ADME, organism-based, Canis lupus familiaris
# experimental-setup: in vivo

- cpd-smiles: "Cn1c(N(Cc2ccc(C(=O)Nc3nnn[nH]3)cc2)[C@H]2CC[C@H](C(C)(C)C)CC2)nc2cc(C(F)(F)F)ccc21"
  clearance [L/h/kg]: 0.228

* * *

half-life values for the compounds below.
# test-details: Half life in mouse at 1 mg/kg, iv and 2 mg/kg, po
# Assay type: ADME, organism-based
# experimental-setup: in vivo

- cpd-smiles: "Cn1c(N(Cc2ccc(C(=O)Nc3nnn[nH]3)cc2)[C@H]2CC[C@H](C(C)(C)C)CC2)nc2cc(OC3CCCC3)ccc21"
  half-life / h: 3.2
- cpd-smiles: "Cn1c(N(Cc2ccc(C(=O)Nc3nnn[nH]3)cc2)[C@H]2CC[C@H](C(C)(C)C)CC2)nc2cc(C(F)(F)F)ccc21"
  half-life / h: 1.9

* * *

Listed here are molecules together with their documented Selectivity ratio.
# Species on record: Homo sapiens
# test-details: Selectivity for human glucagon receptor over human GIP

- cpd-smiles: "CCCOc1ccc2nc(N(Cc3ccc(C(=O)Nc4nnn[nH]4)cc3)[C@H]3CC[C@H](C(C)(C)C)CC3)n(C)c2c1"
  Selectivity ratio: "> 50"
- cpd-smiles: "Cn1c(N(Cc2ccc(C(=O)Nc3nnn[nH]3)cc2)[C@H]2CC[C@H](C(C)(C)C)CC2)nc2cc(C(F)(F)F)ccc21"
  Selectivity ratio: "> 50"
- cpd-smiles: "Cn1c(N(Cc2ccc(C(=O)Nc3nnn[nH]3)cc2)[C@H]2CC[C@H](C(C)(C)C)CC2)nc2cc(OC3CCCC3)ccc21"
  Selectivity ratio: "> 50"
- cpd-smiles: "COc1ccc2nc(N(Cc3ccc(C(=O)Nc4nnn[nH]4)cc3)[C@H]3CC[C@H](C(C)(C)C)CC3)n(C)c2c1"
  Selectivity ratio: "> 50"
